# targetOrTestSystem: T1, human MSLN-hFc protein (Acro, Cat. No. MSN-H5253) (human, UniProt Q13421 296-580)
# T1 construct: the method names the coated protein as human MSLN-hFc (Acro); also called human MSLN full-length protein
# T1 sequence (Q13421 other isoform, or with tags, fused parts or gaps limits assumed): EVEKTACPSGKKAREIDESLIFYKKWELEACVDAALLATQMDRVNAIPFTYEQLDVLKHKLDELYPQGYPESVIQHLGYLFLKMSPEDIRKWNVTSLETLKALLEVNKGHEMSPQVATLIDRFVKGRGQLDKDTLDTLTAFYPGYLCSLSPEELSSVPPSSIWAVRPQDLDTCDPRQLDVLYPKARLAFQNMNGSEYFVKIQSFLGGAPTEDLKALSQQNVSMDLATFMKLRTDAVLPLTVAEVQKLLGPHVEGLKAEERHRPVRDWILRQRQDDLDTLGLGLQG
# methodDescription: ELISA on coated antigen, antibody 100 nM
observable: OD450 (OD450)
Express it in OD450; write the number only.

{"binder": "F7.33.24-H3 (scFv, not shown: small tags and cut ends, also called S009-F7.33.24 humanized antibody VH1 + VL3) scFv: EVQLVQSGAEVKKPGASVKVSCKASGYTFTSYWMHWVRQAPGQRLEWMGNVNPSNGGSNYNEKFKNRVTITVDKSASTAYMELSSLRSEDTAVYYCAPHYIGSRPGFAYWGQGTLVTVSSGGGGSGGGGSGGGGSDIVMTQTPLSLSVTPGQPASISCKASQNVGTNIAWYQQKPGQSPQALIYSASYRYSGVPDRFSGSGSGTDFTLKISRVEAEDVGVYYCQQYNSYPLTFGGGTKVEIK", "observable": "OD450", "val": 2.93}

Problem: Please give the documented OD450 of F7.33.24-H11 (scFv, not shown: small tags and cut ends, also called S009-F7.33.24 humanized antibody VH2a + VL2) scFv: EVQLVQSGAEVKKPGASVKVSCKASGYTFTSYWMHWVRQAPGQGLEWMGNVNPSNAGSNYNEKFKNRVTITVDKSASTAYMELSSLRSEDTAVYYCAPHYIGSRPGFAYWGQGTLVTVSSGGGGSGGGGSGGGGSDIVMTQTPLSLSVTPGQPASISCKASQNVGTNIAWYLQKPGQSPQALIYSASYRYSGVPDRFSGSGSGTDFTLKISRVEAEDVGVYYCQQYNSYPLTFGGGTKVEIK
Result: 2.65
